- Target System: human A2B AR (Homo sapiens, UniProt P29275)
- Construct: expressed in transfected cells; host or cells: CHO cells
- Sequence (P29275 1-332): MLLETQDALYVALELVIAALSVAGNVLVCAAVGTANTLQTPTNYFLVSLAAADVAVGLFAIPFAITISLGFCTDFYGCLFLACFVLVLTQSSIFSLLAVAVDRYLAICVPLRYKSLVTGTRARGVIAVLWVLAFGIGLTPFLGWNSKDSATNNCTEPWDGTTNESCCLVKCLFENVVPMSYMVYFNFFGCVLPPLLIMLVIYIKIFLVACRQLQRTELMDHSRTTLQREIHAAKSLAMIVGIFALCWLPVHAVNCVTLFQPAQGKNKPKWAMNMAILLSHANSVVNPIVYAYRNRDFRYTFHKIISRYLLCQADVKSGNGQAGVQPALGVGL
- Assay Notes: Radioligand binding assay at human A2B AR vs. [^3H]PSB-603
- Condition Label: at 1,000 nM, read-out: % inhibition of radioligand binding at indicated concentration, A2B vs. [^3H]PSB-603
- Procedure: Membrane preparations and radioligand binding assays at rat A1 (rat brain cortex) and rat A2A ARs (rat brain striatum) were performed as previously described (Ozola et al., [2003]; Alnouri et al., [2015]). […] The synthesized tetrahydropyrazino[2,1-f ]purinediones 13–20 were evaluated in radioligand binding assays for their affinity to A1 ARs of rat brain cortical membrane and to A2A ARs of rat brain striatal membrane preparations. […]
Mark condition not met for inhibition at 1 µM values under 9%, and condition met for everything at or above.

Reference set, count: 3
CCn1c(=O)c2c(nc3n2CCN(Cc2cccc(Cl)c2)C3)n(CC)c1=O [Compound 15c]: condition met
CCn1c(=O)c2c(nc3n2CCN(Cc2ccccc2Br)C3)n(C)c1=O [Compound 14a]: condition met
CCn1c(=O)c2c(nc3n2CCN(Cc2cc(F)cc(C(F)(F)F)c2)C3)n(C)c1=O [Compound 14p]: condition not met

Entry CCn1c(=O)c2c(nc3n2CCN(Cc2cc(Cl)ccc2Cl)C3)n(C)c1=O [Compound 14j] : is its inhibition at 1 µM no less than 9%?
condition not met

Decide: inhibition at 1 µM of C#CCn1c(=O)c2c(nc3n2CCN(CCc2ccccc2OC)C3)n(CC)c1=O [Compound 20i] >= 9%?
condition met

Answer whether inhibition at 1 µM of CCn1c(=O)c2c(nc3n2CCN(Cc2cccc(C(F)(F)F)c2F)C3)n(CC)c1=O [Compound 15h] is greater than or equal to 9%.
condition met

Where do these numbers come from? They come from paper PMC6028563.
